# measurement-target: Sigma non-opioid intracellular receptor 1 (Homo sapiens, UniProt Q99720)
# Sequence (Q99720 whole entry): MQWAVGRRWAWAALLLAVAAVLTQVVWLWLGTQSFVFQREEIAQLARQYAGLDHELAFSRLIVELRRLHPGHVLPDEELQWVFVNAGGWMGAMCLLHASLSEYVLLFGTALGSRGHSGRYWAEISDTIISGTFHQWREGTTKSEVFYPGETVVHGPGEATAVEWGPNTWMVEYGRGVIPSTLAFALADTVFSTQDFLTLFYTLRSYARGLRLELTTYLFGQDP
# method-notes: In vitro binding affinity for Sigma opioid receptor by displacement of [3H]DTG
// pKi lookup, one value per entry
As a rule, pKi stands for the negative log10 of the concentration, concentration in M.

Use the examples below as a reference point.
entry-smiles	reading
Cn1c(=O)sc2cc(CCN3CCN(Cc4ccccc4)CC3)ccc21	8.52
Cn1c(=O)sc2cc(CCCCN3CCN(Cc4ccc(Cl)cc4Cl)CC3)ccc21	8.05
Cn1c(=O)sc2cc(CCCCN3CCN(Cc4ccc(Cl)c(Cl)c4)CC3)ccc21	8.70

Now for a further compound.
INPUT: Given Cn1c(=O)sc2cc(CCN3CCC(c4ccccc4)CC3)ccc21 , report its pKi on Sigma non-opioid intracellular receptor 1 (Homo sapiens, UniProt Q99720).
OUTPUT: 8.70
